In this section we review reported IC50 values for a set of compounds.
- testedOn: recombinant human KLK5 (Homo sapiens, UniProt Q9Y337)
- Sequence (Q9Y337 23-293): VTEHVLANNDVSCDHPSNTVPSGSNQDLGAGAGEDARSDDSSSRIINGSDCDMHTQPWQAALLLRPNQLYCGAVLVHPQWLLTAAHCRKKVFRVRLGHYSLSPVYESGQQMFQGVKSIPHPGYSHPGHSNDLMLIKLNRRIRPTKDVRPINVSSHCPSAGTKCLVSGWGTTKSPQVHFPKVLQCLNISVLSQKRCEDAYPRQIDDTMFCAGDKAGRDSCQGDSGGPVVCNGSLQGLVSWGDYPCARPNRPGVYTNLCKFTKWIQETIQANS
- assayOverview: Kallikrein (KLK) 5 enzymatic assay (Boc-VPR-AMC fluorogenic substrate)
- conditionParameters: recombinant human KLK5 0.1 μg/well, Boc-VPR-AMC 100 μM, pH 7.5, room temperature, 1% DMSO; tested a minimum of three times
assayReadout: IC50

- compound: "Nc1nccc2ccc(-c3ccc4nn(C5CN(CCO)C5)c(COc5ccccc5CC(=O)O)c4c3)cc12 [Compound 119h]"
  assayReadout: "IC50"
  resultValue: "1 to 10 µM"
- compound: "CCCn1nc(COc2ccccc2CC(=O)O)c2cc(-c3cccc4c(N)nccc34)ccc21 [Compound 187b]"
  assayReadout: "IC50"
  resultValue: "< 1 µM"
- compound: "CC(C)n1nc(COc2ccccc2CC(=O)O)c2cc(-c3ccc(C(=N)N)c(O)c3)ccc21 [Compound 29c]"
  assayReadout: "IC50"
  resultValue: "> 10 µM"
- compound: "CCCCn1nc(COc2ccccc2CC(=O)O)c2cc(-c3cccc4c(N)nccc34)ccc21 [Compound 185b]"
  assayReadout: "IC50"
  resultValue: "< 1 µM"
- compound: "Nc1nccc2c(-c3ccc4c(c3)c(COc3ccccc3CC(=O)O)nn4[C@@H]3CCOC3)cccc12 [Compound 245h]"
  assayReadout: "IC50"
  resultValue: "< 1 µM"
- compound: "CC(C)(C)OC(=O)N1CCC(n2nc(COc3ccccc3CC(=O)O)c3cc(-c4cccc5c(N)nccc45)ccc32)C1 (stereo not shown) [Compound 86h]"
  assayReadout: "IC50"
  resultValue: "< 1 µM"
- compound: "CC(C)OC(=O)N1CC[C@H](n2nc(COc3ccccc3CC(=O)O)c3cc(-c4ccc5ccnc(N)c5c4)ccc32)C1 [Compound 358c]"
  assayReadout: "IC50"
  resultValue: "< 1 µM"
